meta.source: PubChem BioAssay (Tox21)

assay: Nuclear factor erythroid 2-related factor 2/antioxidant responsive element (Nrf2/ARE) small molecule agonists: luciferase reporter gene qHTS assay in human keratinocytes (AID 1919969); conditions: KeratinoSens HaCaT ARE-luciferase, luminescence, 24 h; series mostly up to 92.4 µM; also: nearly all actives have a fitted effect of over 35% in size
Results filed as inconclusive are left out. The source made the active and inactive calls. Calls follow the shape of the full dose curve.
Outcomes: active, inactive

COMPOUND | CATEGORY LABEL
C1COCO1 | inactive
O=C(O)CN1C(=O)c2cccc3cccc(c23)C1=O | inactive
O=S(=O)(O)c1cc(S(=O)(=O)O)c2c(N=Nc3ccccc3)c(O)ccc2c1 | inactive
C/C(=C\c1ccc(C(=O)O)cc1)c1ccc2c(c1)C(C)(C)CCC2(C)C | inactive
Cc1c(Cl)c(=O)oc2cc(O)ccc12 | inactive
O=C(Cl)c1cc(Cl)cc(Cl)c1 | inactive
OCCC1CCCCN1 (stereo unspecified) | inactive
COc1cccc2sc(N)nc12 | inactive
C[C@@H](Oc1ccc(CNC(=O)c2cccnc2Oc2ccc3c(c2)OCO3)c(F)c1)C(=O)O | inactive
Cc1nc(N)nc(N)c1-c1ccc(Cl)c(Cl)c1 | inactive
COC(=O)c1ccc(C(=O)OC)c(C(=O)OC)c1 | inactive
Cc1ccc2ccc3cccc4ccc1c2c34 | inactive
C#CC(O)C(CC)CCCC (stereo unspecified) | inactive
CNCc1ccc(NC(=O)c2c[nH]c3c2C(=O)CCC3)cc1 | inactive
O=C(O)C(c1ccc(Cl)cc1)c1ccc(Cl)cc1 | inactive
COc1ccc(-c2ccc3cc(C(=O)O)ccc3c2)cc1C12CC3CC(CC(C3)C1)C2 | inactive
COc1ccccc1N1CCN(CC(O)COc2cccc3ccccc23)CC1 (stereo unspecified) | inactive
CCCOc1ccc(S(=O)(=O)N2CCN(CC)CC2)cc1-c1nc2c(CC)n(Cc3ccccn3)nc2c(=O)[nH]1 | inactive
CCCCNCC | inactive
[Cl][Bi]([Cl])([c]1ccccc1)([c]1ccccc1)[c]1ccccc1 | active
CC(=O)c1ccccc1[N+](=O)[O-] | inactive
COCCc1ccc(OCC2CO2)cc1 (stereo unspecified) | inactive
O=CN(CCO)CCO | inactive
CCO[Si](CCC1CCC2OC2C1)(OCC)OCC (stereo unspecified) | inactive
CCCCCCCCC(CO)CCCCCC (stereo unspecified) | inactive
CC(=O)CC(=O)c1ccccc1 | active
CCOC(=O)CC(C)C | inactive
CC(=O)Nc1ccc(OC(=O)c2ccccc2OC(C)=O)cc1 | inactive
Cc1onc(-c2ccccc2Cl)c1C(=O)N[C@@H]1C(=O)N2[C@@H]1SC(C)(C)[C@@H]2C(=O)O | inactive
Nc1ccc2cc(S(=O)(=O)O)cc(O)c2c1N=Nc1ccccc1C(F)(F)F | inactive
O=C(Oc1ccccc1)c1cccc(C(=O)Oc2ccccc2)c1 | active
C=Cc1ccc(C=C)cc1 | inactive
O=C(c1ccccc1)c1ccc(O)cc1 | inactive
C/C=C1\C(=O)C[C@H]2[C@@H]3CCC4=CC(=O)CC[C@]4(C)[C@H]3CC[C@]12C | active
Clc1ccc2cc3ccccc3cc2c1 | inactive
Cc1ccc(-c2ncc(Cl)cc2-c2ccc(S(C)(=O)=O)cc2)cn1 | inactive
Fc1ccccc1 | inactive
CC[C@H]1O[C@]2(CC[C@@H]1C)C[C@@H]1C[C@@H](C/C=C(\C)C[C@@H](C)/C=C/C=C3\CO[C@@H]4[C@H](O)C(C)=C[C@@H](C(=O)O1)[C@]34O)O2 | inactive
O=[N+]([O-])c1nccn1CO[C@@H](CO)[C@H](O)CO | inactive
C=CC(=O)OCC1CC2CC1C1CCC(COC(=O)C=C)C21 (stereo unspecified) | active
CCCCC(CC)CN1CN(CC(CC)CCCC)CC(C)(N)C1 (stereo unspecified) | inactive
CCC(C)(C)c1ccc(CC(C)CN2C[C@@H](C)O[C@@H](C)C2)cc1 (stereo partly specified) | inactive
OCc1cc(C(O)CNCCCCCCOCCCCc2ccccc2)ccc1O (stereo unspecified) | inactive
OCCN1CCN(CCCN2c3ccccc3Sc3ccc(C(F)(F)F)cc32)CC1 | inactive
O=c1cc(O)c(Cl)c[nH]1 | inactive
O=C1OC(=O)c2c(Br)c(Br)c(Br)c(Br)c21 | inactive
CCCCN1C[C@H](O)[C@@H](O)[C@H](O)[C@H]1CO | inactive
CC(Cc1ccccc1)(NC(=O)CN)c1ccccc1 (stereo unspecified) | inactive
CNc1ccc([N+](=O)[O-])cc1 | inactive
CCCCCCCCCCCCN(CCCCCCCCCCCC)CCCCCCCCCCCC | inactive
NNc1nc(-c2ccccc2)cs1 | active
